Readings of IC50 for the listed molecules
Test system: VCaP cells
test: VCaP growth inhibition assay
Type: cell-based
cond: 30 pM R1881, 9 days, CTG
Experimental: VCaP cells (ATCC Cat #CRL-2876) are plated at 1×10^4 cells per well of a white plastic 96-well cluster plate (Thermo Scientific Nunc Cat #165306) in 100 uL phenol red-free DMEM (Gibco Cat #21063-029) media with 5% CSS (Omega Scientific Cat #FB-04). Cluster plates are returned to the incubator (37*C/5% CO2) for 72 hours prior to treatment. […]

Study these solved cases before continuing.
molecule: CC(=O)N1CCc2c(c(N3CCCc4cc(-c5cnn(C)c5)c(C(F)F)cc43)nn2C2CCN(CC3CCN(c4ncc(C(=O)NC5C(C)(C)C(Oc6ccc(C#N)c(Cl)c6)C5(C)C)cn4)CC3(C)C)CC2)C1 (stereo not drawn) [Compound 356]
assay target: VCaP cells
quantity kind: IC50
recorded value: ≤ 0.1 nM
--
molecule: CC(=O)N1CCc2c(c(N3CCCc4cc(-c5cnn(C)c5)c(C(F)F)cc43)nn2C2CCN([C@@H]3CCCN(c4ncc(C(=O)NC5C(C)(C)C(Oc6ccc(C#N)c(Cl)c6)C5(C)C)cn4)C3)CC2)C1 (stereo partly drawn) [Compound 398]
assay target: VCaP cells
quantity kind: IC50
recorded value: 1 to 100 nM

Next molecule, IC50 to be filled in.
Look up and state reported IC50 for COC(=O)N1c2ccc3c(nc(Cc4ccccc4)n3[C@@H]3CCC[C@@H](C(=O)N4CCN(c5ncc(C(=O)NC6C(C)(C)C(Oc7ccc(C#N)c(Cl)c7)C6(C)C)cn5)CC4)C3)c2CC[C@@H]1C (stereo partly drawn) [Compound 127] ≤ 0.1 nM

###

Tested on: VCaP cells
test: VCaP growth inhibition assay
Type: cell-based
cond: 30 pM R1881, 9 days, CTG
quantity kind: IC50

Look up and state reported IC50 for CC(=O)N1CCc2c(c(N3CCCc4cc(-c5ccn(C)n5)c(C(F)F)cc43)nn2C2CCN(CC3CCC(n4cc(C(=O)NC5C(C)(C)C(Oc6ccc(C#N)c(Cl)c6)C5(C)C)cn4)CC3)CC2)C1 (stereo not drawn) 0.1 to 1 nM

Look up and state reported IC50 for COc1cc(OC2C(C)(C)C(NC(=O)c3ccc(N4CC(OC5CCC(n6nc(N7CCCc8cc(-c9cnn(C)c9)c(C(F)F)cc87)c7c6CCN(C(C)=O)C7)CC5)C4)cc3)C2(C)C)ccc1C#N (stereo not drawn) [Compound 342] 0.1 to 1 nM

Look up and state reported IC50 for CC(=O)N1CCc2c(c(N3CCCc4cc(-c5cnn(C)c5)c(C(F)F)cc43)nn2CCCOC2CCN(c3ncc(C(=O)NC4C(C)(C)C(Oc5ccc(C#N)c(Cl)c5)C4(C)C)cn3)CC2)C1 (stereo not drawn) 0.1 to 1 nM

###

Readings of pIC50 for the listed compounds
Test system: HEK-293 cells
test: HEK-293 growth inhibition assay
Format: cell-based
cond: 3 days, CTG
pIC50: −log10 of the molar value.

compound: CNC(=O)N1CCc2c(c(N3CCCc4cc(-c5cnn(C)c5)c(C(F)F)cc43)nn2C2CCN(C(=O)COCCOCCCN3CCN(c4ncc(C(=O)NC5C(C)(C)C(Oc6ccc(C#N)c(Cl)c6)C5(C)C)cn4)CC3)CC2)C1 (centres unmarked) [Compound 102]
recorded value: < 5.00

Next compound, pIC50 to be filled in.
Provide measured pIC50 on HEK-293 cells for CC(=O)N1CCc2c(c(N3CCCc4cc(-c5cnn(C)c5)c(C(F)F)cc43)nn2C2CCN(C(=O)C3CCN(c4ncc(C(=O)NC5C(C)(C)C(Oc6ccc(C#N)c(Cl)c6)C5(C)C)cn4)CC3)CC2)C1 (centres unmarked) [Compound 22] please. < 5.00
